molecular target: T1, PSMA Fab; test: phage ELISA; biotinylated PSMA Fab on neutravidin plate, pre-incubated with PSMA antigen as competitor, anti-M13 HRP detection
T1 construct: also called Anti-PSMA Fab; 006 PSMA Fab
Measured Endpoint: Phage binding ELISA signal, Anti-PSMA Fab in presence of PSMA
Format: numeric value only, no unit, no commentary.

Below are worked cases with known answers.
PVRVCIPQWMCIGF [Phage-3440] = 0.13
ITPMCIPAWMCEGV [Phage-3445] = 0.0611
ETMICKPEWMCTGF [Phage-3441] = 0.0818

Next up:
Inquiry: # lookup: Phage binding ELISA signal, Anti-PSMA Fab in presence of PSMA of LEKVCKPMWMCTGF [Phage-3448]
Reply text: 0.0949
